Values compiled from PubChem BioAssay (NCI).

# Test system: KM12 colon
# method: NCI tumour cell line growth inhibition, 48 h
Reported TGI values for a set of molecules

I would be grateful if you could share the reported TGI for COC(=O)CSc1[nH]c2nc(C)nc(Nc3ccccc3)c2c1C#N .
> 10 µM

I would be grateful if you could share the reported TGI for c1ccc(COc2nc3ccc(C45CC6CC(CC(C6)C4)C5)cc3[nH]2)cc1 .
> 100 µM

I would be grateful if you could share the reported TGI for Nc1nc(Cl)nc2c1ncn2C1O[C@H](CO)[C@@H](O)[C@@H]1F (stereo partly specified) .
> 100 µM

I would be grateful if you could share the reported TGI for O=C(O)/C(Cl)=C(/Cl)C(=O)Nc1cccc(Cl)c1 .
47.7 µM

I would be grateful if you could share the reported TGI for Cc1c(Cl)cccc1NC(=O)C(=O)C1C(=O)NC(=O)NC1=O .
> 100 µM

I would be grateful if you could share the reported TGI for OC1(c2ccc(Cl)cc2)c2ccccc2C2=Nc3ccccc3CN21 (stereo unspecified) .
> 75.4 µM

---

# Test system: RPMI-8226 leukemia
# method: NCI tumour cell line growth inhibition, 48 h; in the data active = GI50 below about 0.43 µM; inactive = the rest
Pick one and only one: active, inactive

{"compound": "C[n+]1c2ccccc2c(NC2CCNCC2)c2[nH]c3ccccc3c21", "targetOrTestSystem": "RPMI-8226 leukemia", "classAssignment": "active"}
{"compound": "COc1ccc2c(CNCCCCO)cc3cc4c(cc3c2c1)OCO4", "targetOrTestSystem": "RPMI-8226 leukemia", "classAssignment": "inactive"}

How did this test come out for Cc1cc(S(N)(=O)=O)c(S/C(=N\NS(=O)(=O)c2ccc(Cl)cc2)c2ccc(Cl)cc2)cc1Cl ?
inactive

How did this test come out for O=C1c2cc3c(cc2-c2c1c1ccc([N+](=O)[O-])cc1c(=O)n2CCCCl)OCO3 ?
active

How did this test come out for COc1ccc(C2CC(c3cc(OC)c(OC)c(OC)c3)=NN2)cc1 (configuration not stated) ?
inactive

How did this test come out for COc1ccc(/C=C(/C(=O)N2CCNCC2)c2cc(OC)c(OC)c(OC)c2)cc1O ?
inactive

How did this test come out for Fc1ccc(Nc2nc(Nc3ccc(-c4nc5ccccc5[nH]4)cc3)nc(N3CCCC3)n2)cc1 ?
inactive

---

# System: HCT-15 colon
# method: NCI tumour cell line growth inhibition, 48 h
experimentalEndpoint: TGI

See these solved cases before continuing.
{"compound": "CCN(CC)P1(=S)Oc2ccc3ccccc3c2-c2c(ccc3ccccc23)O1", "measuredResult": "> 100 µM"}
{"compound": "Cc1ccccc1NC(=O)c1[nH]c(=S)nc(N)c1-c1ccccc1C", "measuredResult": "> 100 µM"}
{"compound": "NS(=O)(=O)c1ccc(-n2nc(-c3ccc(Cl)cc3)cc2C2=CC(=O)C=CC2=O)cc1", "measuredResult": "32.2 µM"}
{"compound": "CC(=O)c1ccc2c(c1)CC1(C2)Cc2cc3c(cc2C1)C(=O)CC3 (stereo not given)", "measuredResult": "13.2 µM"}
{"compound": "COC(=O)CSc1[nH]c2nc(C)nc(Nc3ccccc3)c2c1C#N", "measuredResult": "> 10 µM"}

I would be grateful if you could share the reported TGI for CCOC(=O)C1(C(=O)OCC)C[C@H]2CON=C2[C@@H]1c1ccc(C(F)(F)F)cc1 .
> 100 µM

I would be grateful if you could share the reported TGI for N#Cc1nn(-c2ccc(Cl)cc2)c(N)c2c(=N)n3nc(-c4ccccc4)cc3nc12 .
> 100 µM

I would be grateful if you could share the reported TGI for CCc1nnc2sc(-c3ccc(-c4ccc(Cl)cc4Cl)o3)nn12 .
> 100 µM

I would be grateful if you could share the reported TGI for c1ccc(COc2nc3ccc(C45CC6CC(CC(C6)C4)C5)cc3[nH]2)cc1 .
> 29.5 µM

I would be grateful if you could share the reported TGI for N#Cc1c2ccccc2c2nnc3cc(Cl)c(Cl)cc3n12 .
> 100 µM

---

# Test system: PC-3 prostate
# method: NCI tumour cell line growth inhibition, 48 h
experimentalEndpoint: TGI

{"molecule": "O=C1NC(=NCCc2ccccc2Cl)S/C1=C\\c1ccc2ncccc2c1", "experimentalEndpoint": "TGI", "measuredResult": "> 25 µM"}
{"molecule": "CC1(C(O)c2ccccc2)CN(C(C)(C)C)C(=O)/C1=C\\Sc1ccccc1 (stereo not given)", "experimentalEndpoint": "TGI", "measuredResult": "> 100 µM"}
{"molecule": "Cc1[nH]n(C(=O)c2ccccc2O)c(=O)c1/C=C1\\C(=O)C=Cc2ccccc21", "experimentalEndpoint": "TGI", "measuredResult": "23 µM"}
{"molecule": "CC1SC(c2cccs2)N(NC(=O)C(O)c2ccccc2)C1=O (stereo not given)", "experimentalEndpoint": "TGI", "measuredResult": "> 100 µM"}

Turning now to a further molecule:
I would be grateful if you could share the reported TGI for O=C1c2cccnc2-c2nc(-c3ccc([N+](=O)[O-])cc3)cc3c2c1nc1ccccc13 .
> 100 µM

---

Reported TGI values for a set of compounds
# Tested on: SK-MEL-5 melanoma
# method: NCI tumour cell line growth inhibition, 48 h

See these solved cases before continuing.
{"compound": "COc1ccc(N(C(=O)OC(C)(C)C)[C@@H]2C(C)=C[C@H]([S@@](=O)c3ccc(C)cc3)[C@@H]3C(=O)N(C)C(=O)[C@@H]32)cc1", "TGI": "43.7 µM"}
{"compound": "C(=N\\NC1=NCCCN1)/c1ccc(-c2cn3cc(/C=N/NC4=NCCCN4)ccc3n2)cc1", "TGI": "> 100 µM"}
{"compound": "COc1ccc(C2CC(c3cc(OC)c(OC)c(OC)c3)=NN2)cc1 (centres undefined)", "TGI": "17.8 µM"}
{"compound": "CC(C)(C)c1ccc(-c2nnc(SCc3ccc(Cl)cc3)n2-c2cccc(C(F)(F)F)c2)cc1", "TGI": "> 100 µM"}
{"compound": "O=c1c(-c2ccccc2)c[nH]c2cc([N+](=O)[O-])c(/C(Cl)=C/c3ccccc3)cc12", "TGI": "25.8 µM"}
{"compound": "CCC1=C(C)C2=NC1=CC1=NC(=C(CC)/C1=C/O)C=C1N=C3C(=C1C)C(=O)C(C(=O)OC)C3=C1NC(=C2)C(C)C1CCC(=O)OC (centres undefined)", "TGI": "> 100 µM"}
{"compound": "Brc1ccc(-c2ccc(-c3ccc(Br)s3)s2)s1", "TGI": "> 100 µM"}
{"compound": "CCC(C#N)N(Cc1cccc(CN(C(C)=O)C(C#N)CC)c1)C(C)=O (centres undefined)", "TGI": "> 100 µM"}

Turning now to a further compound:
I would be grateful if you could share the reported TGI for N#Cc1c2ccccc2c2nnc3cc(Cl)c(Cl)cc3n12 .
> 100 µM

---

Reported TGI values for a set of compounds
# System: IGROV1 ovarian
# method: NCI tumour cell line growth inhibition, 48 h
Your answer is read as µM, so omit the unit and give the number.

See these solved cases before continuing.
{"compound": "NS(=O)(=O)c1ccc(CNC(=S)NC(=O)Nc2ccc(Cl)c(Cl)c2)cc1", "endpointUnit": "µM", "TGI": 50.5}
{"compound": "CC1=C(C(=O)Nc2ccc(F)c(Cl)c2)C(c2cccc(Cl)c2)NC(=O)N1 (stereo not drawn)", "endpointUnit": "µM", "TGI": 31.3}
{"compound": "COc1ccc2c(CNCCCCO)cc3cc4c(cc3c2c1)OCO4", "endpointUnit": "µM", "TGI": 4.75}
{"compound": "Cc1ccccc1NC(=O)NC(CC(N)=O)c1ccc2c(c1)nc(-c1cccc(Oc3ccc(C(C)(C)C)cc3)c1)n2CCCN1CCCCC1C (stereo not drawn)", "endpointUnit": "µM", "TGI": 9.82}
{"compound": "C[n+]1c2ccccc2c(NC2CCNCC2)c2[nH]c3ccccc3c21", "endpointUnit": "µM", "TGI": 5.05}
{"compound": "Cc1nn(-c2ccccc2)c(C)c1/C=N/NC(=O)c1sc(=S)n(-c2ccc(Cl)cc2)c1N", "endpointUnit": "µM", "TGI": 4.26}
{"compound": "CCC(=O)O[C@@H]1C2C(OC(C)=O)C34COC(C)([C@@H]3C3C(C[C@]3(C)OC(C)=O)[C@@H](OC(=O)c3ccccc3)C4=O)[C@H](OC(C)=O)[C@@]2(OC(C)=O)C[C@@H]1C (stereo partly drawn)", "endpointUnit": "µM", "TGI": 40}
{"compound": "Cc1c2c(nn1-c1ccc(S/N=C3\\SCC(=O)CN3c3ccccc3)cc1)-c1ccccc1CC2", "endpointUnit": "µM", "TGI": 21.4}

I would be grateful if you could share the reported TGI for CC(=O)C1=CC=C/C1=N\Nc1ccccc1 .
21.3

I would be grateful if you could share the reported TGI for CNCCNc1nc2ccccc2c2c(=O)c3cccc(OC)c3sc12 .
2.44
